Ref: paper PMC9262865

target: tyrosine phenol-lyase (wild type TPL) (Citrobacter freundii)
Property label: pKd
Note on pKd: it is the negative log10 of concentration, concentration in mol/L.

Request: For the compound CSCC[C@H](N)C(=O)O [L-methionine] , what pKd is on record?
Response: 3.10

###

target: tyrosine phenol-lyase (M379A TPL) (Citrobacter freundii, UniProt P31013, M379A); assay: X-ray crystal structure
Property label: pKd
Note on pKd: it is the negative log10 of concentration, concentration in mol/L.

Request: For the molecule CSCC[C@H](N)C(=O)O , what pKd is on record?
Response: 2.76
